From: patent US20260137698A1

- Assay Target: CDK7/Cyclin H/MNAT1 (Homo sapiens)
- Sequence (P50613 whole entry): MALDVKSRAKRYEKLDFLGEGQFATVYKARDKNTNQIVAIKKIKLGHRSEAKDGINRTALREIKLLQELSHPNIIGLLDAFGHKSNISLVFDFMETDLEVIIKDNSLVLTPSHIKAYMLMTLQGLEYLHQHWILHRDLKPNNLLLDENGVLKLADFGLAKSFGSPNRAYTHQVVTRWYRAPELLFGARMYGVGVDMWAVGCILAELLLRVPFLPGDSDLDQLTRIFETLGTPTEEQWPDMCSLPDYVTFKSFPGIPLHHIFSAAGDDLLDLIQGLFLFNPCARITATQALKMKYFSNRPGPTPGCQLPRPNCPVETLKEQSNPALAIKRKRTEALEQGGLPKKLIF
- Sequence (P51946 whole entry partner): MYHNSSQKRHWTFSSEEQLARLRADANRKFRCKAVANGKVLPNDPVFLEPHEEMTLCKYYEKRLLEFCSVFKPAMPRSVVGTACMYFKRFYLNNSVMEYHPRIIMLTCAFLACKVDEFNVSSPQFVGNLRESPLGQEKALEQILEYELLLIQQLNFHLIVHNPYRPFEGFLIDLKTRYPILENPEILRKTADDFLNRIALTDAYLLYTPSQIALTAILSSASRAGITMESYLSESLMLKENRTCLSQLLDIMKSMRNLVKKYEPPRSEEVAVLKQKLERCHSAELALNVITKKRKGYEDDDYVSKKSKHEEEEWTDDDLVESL
- Sequence (P51948 whole entry partner): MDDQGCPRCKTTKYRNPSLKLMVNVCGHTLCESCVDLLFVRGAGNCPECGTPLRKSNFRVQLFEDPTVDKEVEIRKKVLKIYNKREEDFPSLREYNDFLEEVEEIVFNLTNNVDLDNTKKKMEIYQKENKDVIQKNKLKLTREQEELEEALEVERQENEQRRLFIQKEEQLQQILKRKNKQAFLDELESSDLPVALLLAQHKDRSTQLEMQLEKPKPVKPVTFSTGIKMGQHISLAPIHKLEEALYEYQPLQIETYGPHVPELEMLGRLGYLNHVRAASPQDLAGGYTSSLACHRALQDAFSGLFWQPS
- Assay Procedure: Inhibition of CDK7/Cyclin H/MNAT1 kinase activity (ADP-Glo)
- Type: biochemical
- Applied Conditions: mean value from several measurements; read-out: IC50 CDK7/Cyclin H/MNAT
pIC50: −log10 of the molar value.
Measured pIC50, listed per entry for reference.
Measurement Kind: pIC50

smiles_str=FC(F)(F)c1cnc(N[C@H]2CCCNC2)nc1-c1c[nH]c(-c2ccccc2)c1 result="6.70 to 7.30"
smiles_str=CN1CCC(=O)c2c(-c3nc(N[C@H]4CCCNC4)ncc3C(F)(F)F)c[nH]c2C1=O result="7.30 to 8.30"
smiles_str=O=C(Nc1ccncc1)c1cc(-c2nc(N[C@H]3CCCNC3)ncc2C(F)(F)F)c[nH]1 result="7.30 to 8.30"
smiles_str=CP(C)(=O)c1ccccc1Nc1nc(N[C@H]2CCCNC2)ncc1C(F)(F)F result="> 8.30"
smiles_str=CN(Cc1ccccc1)C(=O)c1cc(-c2nc(N[C@H]3CCCNC3)ncc2C(F)(F)F)c[nH]1 result="7.30 to 8.30"
smiles_str=O=C(c1ccccc1)c1cc(-c2nc(N[C@H]3CCCNC3)ncc2C(F)(F)F)c[nH]1 result="7.30 to 8.30"
smiles_str=CCOC(=O)c1cc(-c2nc(N[C@H]3CCCNC3)ncc2C(F)(F)F)c[nH]1 result="> 8.30"
smiles_str=O=C(NC1CCOCC1)c1cc(-c2nc(N[C@H]3CCCNC3)ncc2C(F)(F)F)c[nH]1 result="7.30 to 8.30"
smiles_str=CC1(C)CC[C@H](Nc2ncc(C(F)(F)F)c(-c3c[nH]c4c3CCCN(CC3CCCC3)C4=O)n2)CN1 result="7.30 to 8.30"
smiles_str=CC1(C)CC[C@H](Nc2ncc(C(F)(F)F)c(-c3c[nH]c4c3CCCN(C3CCCC3)C4=O)n2)CN1 result="> 8.30"
smiles_str=CN1CCCc2c(-c3nc(N[C@H]4CCCNC4)ncc3C(F)(F)F)c[nH]c2C1=O result="> 8.30"
smiles_str=Cc1noc(C)c1-n1ccc2c(-c3nc(N[C@H]4CCCNC4)ncc3C(F)(F)F)c[nH]c2c1=O result="> 8.30"
smiles_str=CN(C)C(=O)c1c[nH]cc1-c1nc(N[C@H]2CCCNC2)ncc1C(F)(F)F result="< 6.70"
